Taken from PubChem BioAssay AID827.

# ASSAY_REMARKS: viability loss in PTEN-deleted colon tumor cells – cell-based, HCT116, CellTiter-Glo, primary screen (AID 827);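 also: PTEN knockout HCT116 line with beta catenin targeted HCT116 as companion control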
# CONDITION_SUMMARY: HCT116 PTEN-null viability, 60 h, at 10 µM
The campaign covered roughly 140,000 compounds. About 1,700 (1.2%) were called active.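 The calls were made as follows: active = viability at or below a set limit, 4 SD under the median of all tested compounds (cut at about 3.7% in these data); inactive = the rest.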 The sample holds actives, similar compounds and a random draw of the others, so the mix is not that of the screen.
# valid calls are t = active, f = inactive; nothing else

Q) Given `O=C(O)c1ccccc1-c1ccccc1C(=O)Nc1cccc2ccccc12` , state the outcome it received in this test.
A) f

Q) Given `COc1cccc2cc(C(=O)N3CCN(C(=O)c4ccccc4)CC3)c(=O)oc12` , state the outcome it received in this test.
A) f

Others:
Q) Given Cc1ccc(C)c(NC(CC(=O)c2ccccc2)C(=O)OCC(=O)c2cccs2)c1 (centres undefined) , state the outcome it received in this test.
A) f

Q) Given Cc1ccccc1C(CC(=O)c1cccs1)C(C#N)C#N (centres undefined) , state the outcome it received in this test.
A) t

Q) Given `Oc1ccc(Cl)cc1/C=N/c1nc2ccccc2[nH]1` , state the outcome it received in this test.
A) f

Q) Given `COc1ccc(O[C@H]2C=C[C@@H](c3ccccc3)O[C@@H]2CO/N=C/C[C@@H]2C=C[C@H](OC(C)=O)[C@@H](COC(C)=O)O2)cc1` , state the outcome it received in this test.
A) f

Q) Given `COc1ccc(/C=C(/NC(=O)c2ccc(C)cc2)c2nc3ccccc3[nH]2)cc1OC` , state the outcome it received in this test.
A) f

Q) Given `Cc1c(C(=O)NCCCc2ccccc2)cccc1[N+](=O)[O-]` , state the outcome it received in this test.
A) f

Q) Given `O=C(Nn1c(-c2ccc(Cl)cc2)nc2ccccc2c1=O)c1cccnc1Cl` , state the outcome it received in this test.
A) f

Q) Given Cc1ccc(C)c(NC(=S)NCC(c2cccnc2)N2CCOCC2)c1 (centres undefined) , state the outcome it received in this test.
A) f

Q) Given `C=CCc1cccc2cc(C(=O)OCC)c(=O)oc12` , state the outcome it received in this test.
A) f

Q) Given `CC(C)=C(NC(=O)c1ccccc1)C(=O)N/N=C(\C)c1ccccc1O` , state the outcome it received in this test.
A) f
